Hey, just so you know, these numbers are from the Immune Epitope Database (IEDB).

- test-target: HLA-A*02:01
- procedure-details: IEDB peptide-MHC binding, purified MHC/competitive/fluorescence; filed as Kd, often an IC50 or EC50 that approximates it; bounds were set here for any values at or beyond the usual limits of such assays
- measurement-context: source organism: Japanese encephalitis virus
property: pKd
Worth noting: pKd values are minus log10 of concentrations stated in mol/L.

Suppose we examine the sequence `AIVGGLAEL` ; what pKd value has been reported?
7.92

====

- test-target: HLA-A*32:01
- procedure-details: IEDB peptide-MHC binding, purified MHC/competitive/radioactivity; filed as Kd, often an IC50 or EC50 that approximates it; bounds were set here for any values at or beyond the usual limits of such assays
- measurement-context: source organism: Lymphocytic choriomeningitis virus (strain Armstrong)
property: Kd

Suppose we examine the sequence `NANAYSGKY` ; what Kd value has been reported?
≥ 50 µM

====

- test-target: HLA-A*02:50
- procedure-details: IEDB peptide-MHC binding, purified MHC/competitive/fluorescence; filed as Kd, often an IC50 or EC50 that approximates it; bounds were set here for any values at or beyond the usual limits of such assays
- measurement-context: source organism: Haemophilus influenzae PittAA
property: pKd
Worth noting: pKd values are minus log10 of concentrations stated in mol/L.

Suppose we examine the sequence `LIFPAFFLC` ; what pKd value has been reported?
7.92

====

- test-target: HLA-B*45:06
- procedure-details: IEDB peptide-MHC binding, purified MHC/competitive/fluorescence; filed as Kd, often an IC50 or EC50 that approximates it; bounds were set here for any values at or beyond the usual limits of such assays
- measurement-context: source organism: Mycobacterium tuberculosis variant bovis BCG str. Pasteur 1173P2
property: Kd

Provide value of Kd for this record tested with HLA-B*45:06: `MAAVRTTAL`
≥ 5 µM

====

- test-target: HLA-A*01:01
- procedure-details: IEDB peptide-MHC binding, purified MHC/direct/fluorescence; filed as Kd, often an IC50 or EC50 that approximates it; bounds were set here for any values at or beyond the usual limits of such assays
- measurement-context: source organism: Yellow fever virus
pKd: −log10 of the molar value.
Please provide measured pKd for the entries that follow.

Suppose we examine the sequence `EVRLATMLF` ; what pKd value has been reported?
≤ 4.70

`YFHKRDMRL` , same question.
≤ 4.70

====

Please provide measured Kd for the entries that follow.
- test-target: HLA-A*31:01
- procedure-details: IEDB peptide-MHC binding, purified MHC/direct/fluorescence; filed as Kd, often an IC50 or EC50 that approximates it; bounds were set here for any values at or beyond the usual limits of such assays
- measurement-context: source organism: Burkholderia mallei

Provide value of Kd for this record tested with HLA-A*31:01: `APAKKAAAK`
≥ 20 µM

`AVAVARVAA` , same question.
≥ 20 µM

====

- test-target: HLA-B*15:42
- procedure-details: IEDB peptide-MHC binding, purified MHC/competitive/fluorescence; filed as Kd, often an IC50 or EC50 that approximates it; bounds were set here for any values at or beyond the usual limits of such assays
- measurement-context: source organism: Rattus norvegicus
pKd: −log10 of the molar value.
property: pKd

Suppose we examine the sequence `FLRKNQRAL` ; what pKd value has been reported?
≤ 5.30

====

- test-target: HLA-B*15:42
- procedure-details: IEDB peptide-MHC binding, purified MHC/competitive/fluorescence; filed as Kd, often an IC50 or EC50 that approximates it; bounds were set here for any values at or beyond the usual limits of such assays
- measurement-context: source organism: Homo sapiens
Please provide measured Kd for the entries that follow.

Provide value of Kd for this record tested with HLA-B*15:42: `STMRRMALR`
≥ 5 µM

`FLNPVIYTF` , same question.
≥ 5 µM
